# MEASUREMENT_TARGET: T1, Anti-CD28 Fab (SEQ ID NOs: 696, 697)
# T1 construct: In the phage ELISA the Fab was biotinylated and captured on neutravidin coated plates
# T1 sequence (VH, as listed by the source, chain 1 of 2): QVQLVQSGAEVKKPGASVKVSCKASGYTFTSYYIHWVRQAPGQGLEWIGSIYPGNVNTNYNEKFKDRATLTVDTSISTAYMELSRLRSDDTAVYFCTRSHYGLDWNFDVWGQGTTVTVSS
# T1 sequence (VL, as listed by the source, chain 2 of 2): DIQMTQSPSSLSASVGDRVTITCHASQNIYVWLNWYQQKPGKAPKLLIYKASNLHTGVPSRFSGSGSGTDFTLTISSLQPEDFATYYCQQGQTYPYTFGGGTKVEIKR
# EXPERIMENT_SUMMARY: phage binding ELISA; biotinylated anti-CD28 Fab on neutravidin plate, bound phage detected with anti-M13-HRP;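 also: clonal phage tested as crude supernatants, given a short incubation in the Fab-captured wells before bound phage were read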
PROPERTY_NAME: Anti-CD28 Fab signal (phage binding ELISA)
Lab note: jot down the number only; don't add units.

TCSAGATYIWPMCF (Tested as clonal phage supernatant; not shown: fused to the pIII filament of the bacteriophage) [Phage-1442 (peptide-92 library clone, SEQ ID NO: 1738)] | 1.9

Okay, now this binder:
Requested read-out: Anti-CD28 Fab signal (phage binding ELISA). Entry: TCSAGAHYVWPMCF (Tested as clonal phage supernatant; not shown: fused to the pIII filament of the bacteriophage) [Phage-1441 (peptide-92 library clone, SEQ ID NO: 1737)] 1.91
